Tested on: Hepatitis C virus
Test: Antiviral activity against pseudo HCV infected in human 293T cells assessed as inhibition of HCV pseudo particles entry at 10 uM after 72 hrs by luciferase reporter gene assay
Type: functional, Hepacivirus hominis
Conditions: HEK-293T
recorded metric: inhibition at 10 µM (%)

INSERT INTO measurements (compound, system_name, recorded_metric, observed) VALUES
  ('CC1(C)CC[C@]2(C(=O)O)CC[C@]3(C)C(=CC[C@@H]4[C@@]5(C)CC[C@H](O)C(C)(C)[C@@H]5CC[C@]43C)[C@@H]2C1', 'Hepatitis C virus', 'inhibition at 10 µM', 65),
  ('CC1(C)CC[C@]2(C(=O)O)[C@H](O)C[C@]3(C)C(=CC[C@@H]4[C@@]5(C)CC[C@H](O)C(C)(C)[C@@H]5[C@H](O)C[C@]43C)[C@@H]2C1', 'Hepatitis C virus', 'inhibition at 10 µM', 5),
  ('CC1(C)CC[C@]2(C(=O)O)[C@H](O)C[C@]3(C)C(=CC[C@@H]4[C@@]5(C)CC[C@H](O)[C@@](C)(C(=O)O)[C@@H]5CC[C@]43C)[C@@H]2C1', 'Hepatitis C virus', 'inhibition at 10 µM', 0),
  ('CC1(C)CC[C@]2(C(=O)O)CC[C@]3(C)C(=CC[C@@H]4[C@@]5(C)CC[C@H](O)[C@@](C)(C=O)[C@@H]5CC[C@]43C)[C@@H]2C1', 'Hepatitis C virus', 'inhibition at 10 µM', 0),
  ('CC1(C)CC[C@]2(C(=O)O)CC[C@]3(C)C(=CC[C@@H]4[C@@]5(C)CC[C@H](OC6O[C@H](CO)[C@@H](O)[C@H](O)[C@H]6O)C(C)(C)[C@@H]5CC[C@]43C)[C@@H]2C1 (some centres not stated)', 'Hepatitis C virus', 'inhibition at 10 µM', 0),
  ('CC1(C)CC[C@]2(C(=O)O)[C@H](O)C[C@]3(C)C(=CC[C@@H]4[C@@]5(C)CC[C@H](O)[C@@](C)(C=O)[C@@H]5CC[C@]43C)[C@@H]2C1', 'Hepatitis C virus', 'inhibition at 10 µM', 0),
  ('CC1(C)C[C@H]2C3=CC[C@@H]4[C@@]5(C)CC[C@H](O)C(C)(C)[C@@H]5CC[C@@]4(C)[C@]3(C)C[C@@H](O)[C@@]2(C(=O)O)C[C@@H]1O', 'Hepatitis C virus', 'inhibition at 10 µM', 15);
